assay: Pharmacokinetic parameters for aspirin and salicylic acid following oral administration of Aspirin,butalbital,caffeine phosphate capsules.; format: ADME, organism-based; parameters: dose 650 mg, route oral; conditions: human, in vivo, po, 650 mg; dosed compound id 37, dosed compound name ASPIRIN, tissue Plasma
Parameter: Cmax
Respond with the figure and its unit, in that order.

Task: Reported Cmax, molecule CC(=O)Oc1ccccc1C(=O)O [ASPIRIN] : ____
Output: 8800 ng/mL

----------
test: Pharmacokinetic parameters for aspirin and salicylic acid following oral administration of Aspirin,butalbital,caffeine phosphate capsules.; type: ADME, organism-based; design: dose 650 mg, route oral; conditions: human, in vivo; dose 650 mg, dosed compound id 37, dosed compound name ASPIRIN, route oral, tissue Plasma
Parameter: half-life
Respond with the figure and its unit, in that order.

O=C(O)c1ccccc1O :: 3 h

Would you kindly look at the next entry?
Task: Reported half-life, compound CC(=O)Oc1ccccc1C(=O)O : ____
Output: 0.2 h
